Tested on: Staphylococcus aureus ATCC 43300, MRSA
Format: cell-based
Settings: ATCC 43300, 18 h
Square brackets hold non-standard residues; d marks the D form. Peptide text beside a SMILES is read from it. * marks the point of attachment. NH(1-CH2NMe2-cBu) = CN(C)CC1(N*)CCC1; Oxazole4CO(2-Me) = Cc1nc(C(=O)*)co1; Benzoyl(4-F) = O=C(c1ccc(F)cc1)*; hCha = N[C@@H](CCC1CCCCC1)C(=O)O; X2 = C1CCN(CC2(N*)CCC2)CC1; Aib = CC(C)(N)C(=O)O; βAla = NCCC(=O)O

| Molecule | MIC, µg/mL |
| --- | --- |
| Cc1nc(C(=O)N2CCCC2C(=O)N[C@@H](CCC2CCCCC2)C(=O)N[C@@H](CC(C)C)C(=O)NC(C)(C)C(=O)N[C@@H](CC(C)C)C(=O)N[C@@H](CC(C)C)C(=O)NC(C)(C)C(=O)NC(C)(C)C(=O)NCCC(=O)NCCN)co1 (stereo in doubt) | 8 |
| CC(C)C[C@H](NC(=O)[C@H](CCC1CCCCC1)NC(=O)[C@@H]1CCCN1C(=O)c1ccc(F)cc1)C(=O)NC(C)(C)C(=O)N[C@@H](CC(C)C)C(=O)N[C@@H](CC(C)C)C(=O)NC(C)(C)C(=O)NC(C)(C)C(=O)NCCC(=O)NC1(CN(C)C)CCC1 [Compound 6027] ({Benzoyl(4-F)}-P[hCha]L[Aib]LL[Aib][Aib][βAla]-{NH(1-CH2NMe2-cBu)}) | 2 |
| Cc1nc(C(=O)N2CCC[C@H]2C(=O)N[C@@H](CCC2CCCCC2)C(=O)N[C@@H](CC(C)C)C(=O)NC(C)(C)C(=O)N[C@@H](CC(C)C)C(=O)N[C@@H](CC(C)C)C(=O)NC(C)(C)C(=O)NC(C)(C)C(=O)NCCC(=O)NC2(CN3CCCCC3)CCC2)co1 [Compound 6483] ({Oxazole4CO(2-Me)}-P[hCha]L[Aib]LL[Aib][Aib][βAla]-X2) | 8 |
| Cc1nc(C(=O)N2CCC[C@H]2C(=O)N[C@@H](CC2CCCCC2)C(=O)N[C@@H](CC(C)C)C(=O)NC(C)(C)C(=O)N[C@@H](CC(C)C)C(=O)N[C@@H](CC(C)C)C(=O)NC(C)(C)C(=O)NC(C)(C)C(=O)NCCC(=O)NC2(CN(C)C)CCC2)co1 [Compound 7059] (HELM PEPTIDE1{[Cc1nc(C(=O)[*:2])co1].P.[Cha].L.[Aib].L.L.[Aib].[Aib].[bAla].[CN(C)CC1(N[*:1])CCC1]}$$$$V2.0) | 32 |

----------
Test system: axenic Leishmania donovani MHOM-ET-67/L82 amastigotes
Assay: In vitro antiprotozoal assay, axenic amastigotes
Type: cell-based
Settings: axenic amastigotes; read-out: L.don.ax. IC50
Square brackets hold non-standard residues; d marks the D form. Peptide text beside a SMILES is read from it. * marks the point of attachment. NH(1-CH2NMe2-cBu) = CN(C)CC1(N*)CCC1; Gly(octyl) = CCCCCCCC[C@H](N)C(=O)O; Oxazole4CO(2-Me) = Cc1nc(C(=O)*)co1; hCha = N[C@@H](CCC1CCCCC1)C(=O)O; NHCH2CH2NHMe = CNCCN*; Aib = CC(C)(N)C(=O)O; βAla = NCCC(=O)O; tBu = CC(C)(C)*

| Compound | IC50 (nM) |
| --- | --- |
| CCCCCCCC[C@H](NC(=O)[C@@H]1CCCN1C(=O)c1coc(C)n1)C(=O)N[C@@H](CC(C)C)C(=O)NC(C)(C)C(=O)N[C@@H](CC(C)C)C(=O)N[C@@H](CC(C)C)C(=O)NC(C)(C)C(=O)NC(C)(C)C(=O)NCCC(=O)NCCNC [Compound 7058] ({Oxazole4CO(2-Me)}-P[Gly(octyl)]L[Aib]LL[Aib][Aib][βAla]-NHCH2CH2NHMe) | 23.8 |
| Cc1nc(C(=O)N2CCC[C@H]2C(=O)N[C@@H](COC(C)(C)C)C(=O)N[C@@H](CC(C)C)C(=O)NC(C)(C)C(=O)N[C@@H](CC(C)C)C(=O)N[C@@H](CC(C)C)C(=O)NC(C)(C)C(=O)NC(C)(C)C(=O)NCCC(=O)NC2(CN(C)C)CCC2)co1 [Compound 6780] ({Oxazole4CO(2-Me)}-PS(tBu)L[Aib]LL[Aib][Aib][βAla]-{NH(1-CH2NMe2-cBu)}) | 166 |
| Cc1nc(C(=O)N2CCC[C@H]2C(=O)N[C@@H](CCC2CCCCC2)C(=O)N[C@@H](CC(C)C)C(=O)NC(C)(C)C(=O)N[C@@H](CC(C)C)C(=O)N[C@@H](CC(C)C)C(=O)NC(C)(C)C(=O)NC(C)(C)C(=O)NCCC(=O)NC2(CN(C)C)CCC2)co1 [Compound 6025] ({Oxazole4CO(2-Me)}-P[hCha]L[Aib]LL[Aib][Aib][βAla]-{NH(1-CH2NMe2-cBu)}) | 9.9 |
